Assay: folding stability dG unfold from trypsin proteolysis; higher = more stable
property.label: folding stability dG unfold (kcal/mol)
Return type: number; implicit unit kcal/mol.

Please review the following examples before continuing.
SAGGSAGGSMDPGQPMEFIQIYPDPDGNLEIHVSEIRIDPDGGAKVTEVEPKRIDDAEDLAKFSAGGSAGGS [r12_386_TrROS] = -0.752
SAGMITVPLPDGSVLELTVEKETVTTEVDPSTGKKRLVTETLMTNTGDLAVNGKVSPTTATLTTVVLESAGG [r19_246_JUSTAS] = -0.36
SAGGSAGGSAGGSMPIVRIEVKHPDQKHTFFIPPDMPLEDIADELASQYPNVEVKIEPVSAGGSAGGSAGGS [r4_155_TrROS] = 0.355
SKEEEEEIEIEIVVPNLTEEEIKELAKELLEKKGYEVEEIEITEEELEELKNKKPGDEVVIKIKIKVKKKSA [r9_1163_TrROS_Hall] = 2.51
SAGGMIVIEKEEDGFYRITIRNKETGEEVEEIPISKEELEELLKEAEENMSLEEIAEKLGLEIEIEKVSAGG [r13_836_TrROS_Hall] = 1.68
SAGGSAGGSAGGPPDLVKVRFIKVSVKLKEVKENPNGEKEMKLEMKIEEVEVTVRKDDLSAGGSAGGSAGGS [r10_524_TrROS_Hall] = 2.61

We now examine a further sequence.
Q) Tell me measured folding stability dG unfold for SAGGSAGGSAGGSVYIDPDKGYLVMWNEEDGYIVKYPIDPPNKIPSVDIEPIPPGDPLFSAGGSAGGSAGGS [r4_409_TrROS] please.
A) 1.51
